# testTarget: wild-type human cardiac sodium channel, hNav1.5 (Homo sapiens, UniProt Q14524)
# Sequence (Q14524 whole entry): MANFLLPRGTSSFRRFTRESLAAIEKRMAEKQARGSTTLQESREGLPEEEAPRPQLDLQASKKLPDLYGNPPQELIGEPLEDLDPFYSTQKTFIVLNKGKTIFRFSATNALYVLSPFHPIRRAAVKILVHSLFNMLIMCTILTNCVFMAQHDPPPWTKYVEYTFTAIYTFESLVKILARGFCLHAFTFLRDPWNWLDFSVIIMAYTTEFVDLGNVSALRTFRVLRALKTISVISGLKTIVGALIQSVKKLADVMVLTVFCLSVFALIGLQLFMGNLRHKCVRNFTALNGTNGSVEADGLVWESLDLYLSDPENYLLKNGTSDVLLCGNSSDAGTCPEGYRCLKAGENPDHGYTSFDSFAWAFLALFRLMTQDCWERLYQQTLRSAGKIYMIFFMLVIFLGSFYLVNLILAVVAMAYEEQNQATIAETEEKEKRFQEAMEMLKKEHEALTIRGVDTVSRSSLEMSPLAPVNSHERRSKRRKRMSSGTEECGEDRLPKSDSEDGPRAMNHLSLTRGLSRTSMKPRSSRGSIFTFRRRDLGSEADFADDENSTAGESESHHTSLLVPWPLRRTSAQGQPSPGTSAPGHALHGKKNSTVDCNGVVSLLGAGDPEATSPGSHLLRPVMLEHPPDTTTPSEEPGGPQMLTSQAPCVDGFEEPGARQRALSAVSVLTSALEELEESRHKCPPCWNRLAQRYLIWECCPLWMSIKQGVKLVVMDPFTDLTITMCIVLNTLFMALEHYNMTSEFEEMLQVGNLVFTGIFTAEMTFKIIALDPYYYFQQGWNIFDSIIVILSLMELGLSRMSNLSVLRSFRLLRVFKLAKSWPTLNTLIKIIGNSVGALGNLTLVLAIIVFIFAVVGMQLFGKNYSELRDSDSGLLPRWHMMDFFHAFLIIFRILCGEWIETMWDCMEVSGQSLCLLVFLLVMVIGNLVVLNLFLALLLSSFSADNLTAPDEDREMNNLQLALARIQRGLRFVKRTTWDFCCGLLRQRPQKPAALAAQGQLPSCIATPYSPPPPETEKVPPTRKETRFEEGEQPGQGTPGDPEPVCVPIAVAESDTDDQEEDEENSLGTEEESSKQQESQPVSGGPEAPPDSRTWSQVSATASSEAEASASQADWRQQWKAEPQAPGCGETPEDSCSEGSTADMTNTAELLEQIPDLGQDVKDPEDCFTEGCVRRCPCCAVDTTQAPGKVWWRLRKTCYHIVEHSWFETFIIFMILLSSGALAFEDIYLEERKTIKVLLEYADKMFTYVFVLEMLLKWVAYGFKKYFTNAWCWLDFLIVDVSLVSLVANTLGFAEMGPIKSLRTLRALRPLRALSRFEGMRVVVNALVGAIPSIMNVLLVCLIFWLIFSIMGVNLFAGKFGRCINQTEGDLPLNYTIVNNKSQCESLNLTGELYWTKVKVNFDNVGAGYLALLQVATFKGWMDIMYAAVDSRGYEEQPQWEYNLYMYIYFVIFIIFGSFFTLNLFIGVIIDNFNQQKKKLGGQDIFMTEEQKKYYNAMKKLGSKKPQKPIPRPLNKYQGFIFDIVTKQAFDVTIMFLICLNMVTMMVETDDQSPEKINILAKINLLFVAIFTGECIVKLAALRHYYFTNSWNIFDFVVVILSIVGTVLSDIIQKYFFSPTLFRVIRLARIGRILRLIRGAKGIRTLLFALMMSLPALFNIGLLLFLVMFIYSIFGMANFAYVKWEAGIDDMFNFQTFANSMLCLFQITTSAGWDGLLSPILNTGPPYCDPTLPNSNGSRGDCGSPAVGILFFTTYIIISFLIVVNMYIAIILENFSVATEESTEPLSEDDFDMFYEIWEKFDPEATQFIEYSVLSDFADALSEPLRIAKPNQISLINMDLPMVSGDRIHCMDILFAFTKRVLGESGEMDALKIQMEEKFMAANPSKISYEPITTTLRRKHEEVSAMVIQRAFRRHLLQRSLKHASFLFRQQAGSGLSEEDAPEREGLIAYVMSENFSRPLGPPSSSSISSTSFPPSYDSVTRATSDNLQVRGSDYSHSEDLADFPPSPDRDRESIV
# experimentSummary: Late INa screening assay (QPatch whole cell patch clamp, Tefluthrin-induced late current)
# Assay type: cell-based
# testConditions: 1 uM; HEK293 hNav1.5; percent block of late INa
Consider the following compounds; for each one, report its inhibition at 1 µM.
One number for each entry, in %.

{"columns": ["sampleSmiles", "unitAbbreviation", "inhibition at 1 µM"],
 "data": [
  ["FC(F)(F)Oc1ccc(-c2ccc3onc(OCc4nccc(N5CCOCC5)n4)c3c2)cc1", "%", 25.5],
  ["Cc1cc(-c2ccc(OC(F)(F)F)cc2)cc2c(OCc3nnc(C4CC4)o3)noc12", "%", 53.7],
  ["COCCOc1noc2ccc(-c3ccc(OC(F)(F)F)cc3)cc12", "%", 57.2]
]}

Query: Would you kindly share the measured inhibition at 1 µM for CC(C)NC(=O)COc1noc2ccc(-c3ccc(OC(F)(F)F)cc3)cc12 ?
Response: 41.3

----------
# testTarget: wild-type human cardiac sodium channel, hNav1.5 (Homo sapiens, UniProt Q14524)
# experimentSummary: Peak INa screening assay (tonic block and use-dependent block)
# Type: cell-based
# testConditions: use-dependent block of Peak INa, 3 Hz, pulse 50, read-out: Peak UDB 3 Hz 3 uM
parameterMeasured: inhibition at 3 µM

{"columns": ["sampleSmiles", "inhibition at 3 µM"],
 "data": [
  ["Fc1cc(C(F)(F)F)ccc1-c1cc2c(OCc3ncccn3)noc2cc1F", "5.1%"],
  ["O=C1NCC[C@H]1Oc1noc2ccc(-c3ccc(OC(F)(F)F)cc3)cc12", "10.8%"],
  ["FC(F)(F)Oc1ccc(-c2ccc3onc(OCCn4ccnc4)c3c2)cc1", "5.13%"],
  ["Cc1cc(-c2ccc(OC(F)(F)F)cc2)cc2c(OCCn3cncn3)noc12", "< 5%"]
]}

Query: Entry Fc1cc(C(F)(F)F)ccc1-c1ccc2onc(OCc3ncccn3)c2c1 : reported inhibition at 3 µM = ?
Response: 12.6%

----------
# testTarget: hNaV1.2 (SCN2A) (Homo sapiens)
# Construct: expressed in transfected cells
# Sequence (Q99250 whole entry): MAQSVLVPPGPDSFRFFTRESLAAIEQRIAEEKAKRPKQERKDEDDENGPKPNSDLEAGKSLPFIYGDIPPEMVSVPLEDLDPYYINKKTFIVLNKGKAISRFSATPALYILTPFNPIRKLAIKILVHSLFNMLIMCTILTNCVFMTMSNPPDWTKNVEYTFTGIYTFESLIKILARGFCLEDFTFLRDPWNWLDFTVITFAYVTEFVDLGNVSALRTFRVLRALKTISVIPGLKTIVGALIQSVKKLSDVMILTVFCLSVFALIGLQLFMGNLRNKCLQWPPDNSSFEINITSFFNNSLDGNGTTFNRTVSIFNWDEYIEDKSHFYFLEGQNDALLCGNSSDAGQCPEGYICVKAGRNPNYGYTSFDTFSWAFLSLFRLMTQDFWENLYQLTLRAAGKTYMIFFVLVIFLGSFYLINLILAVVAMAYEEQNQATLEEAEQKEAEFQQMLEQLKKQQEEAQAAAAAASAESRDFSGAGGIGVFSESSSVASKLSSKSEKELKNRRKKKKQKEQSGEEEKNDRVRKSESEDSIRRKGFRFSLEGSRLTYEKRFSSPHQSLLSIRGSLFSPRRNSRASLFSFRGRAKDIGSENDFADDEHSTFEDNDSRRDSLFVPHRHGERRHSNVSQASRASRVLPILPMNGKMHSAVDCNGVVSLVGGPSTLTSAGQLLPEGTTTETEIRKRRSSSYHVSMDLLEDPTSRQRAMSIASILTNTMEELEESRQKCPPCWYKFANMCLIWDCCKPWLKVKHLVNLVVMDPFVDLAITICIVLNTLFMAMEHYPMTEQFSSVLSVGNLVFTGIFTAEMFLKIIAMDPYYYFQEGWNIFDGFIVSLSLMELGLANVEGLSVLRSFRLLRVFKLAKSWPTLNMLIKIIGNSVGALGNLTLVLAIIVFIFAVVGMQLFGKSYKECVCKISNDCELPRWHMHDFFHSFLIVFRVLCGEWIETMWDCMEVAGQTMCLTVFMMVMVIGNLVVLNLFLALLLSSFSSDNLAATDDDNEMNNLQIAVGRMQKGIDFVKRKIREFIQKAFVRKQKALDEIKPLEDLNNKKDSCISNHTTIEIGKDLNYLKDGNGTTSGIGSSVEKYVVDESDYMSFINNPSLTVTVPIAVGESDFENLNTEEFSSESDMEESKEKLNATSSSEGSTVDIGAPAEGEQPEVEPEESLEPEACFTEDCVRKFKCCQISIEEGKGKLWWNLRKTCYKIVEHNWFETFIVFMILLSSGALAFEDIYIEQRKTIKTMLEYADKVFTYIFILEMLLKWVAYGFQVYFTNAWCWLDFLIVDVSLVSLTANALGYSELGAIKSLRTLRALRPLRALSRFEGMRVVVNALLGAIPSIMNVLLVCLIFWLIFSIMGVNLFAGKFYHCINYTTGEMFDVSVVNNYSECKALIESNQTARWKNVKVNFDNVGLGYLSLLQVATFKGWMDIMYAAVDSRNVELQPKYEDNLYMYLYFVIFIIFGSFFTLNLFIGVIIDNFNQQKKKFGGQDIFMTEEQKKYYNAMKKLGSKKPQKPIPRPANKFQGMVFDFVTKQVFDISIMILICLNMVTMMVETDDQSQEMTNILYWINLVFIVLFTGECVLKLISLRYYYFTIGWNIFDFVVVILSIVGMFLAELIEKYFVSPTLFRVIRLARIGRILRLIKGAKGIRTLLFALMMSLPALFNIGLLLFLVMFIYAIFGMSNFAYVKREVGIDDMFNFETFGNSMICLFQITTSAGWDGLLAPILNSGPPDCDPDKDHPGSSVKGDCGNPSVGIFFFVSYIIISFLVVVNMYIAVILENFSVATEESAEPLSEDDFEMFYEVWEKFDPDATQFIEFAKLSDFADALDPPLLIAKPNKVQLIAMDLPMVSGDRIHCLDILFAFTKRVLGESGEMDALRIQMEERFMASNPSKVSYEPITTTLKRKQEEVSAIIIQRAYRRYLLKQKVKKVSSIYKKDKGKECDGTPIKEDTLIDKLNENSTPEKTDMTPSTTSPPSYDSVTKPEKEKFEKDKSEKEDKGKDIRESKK
# Sequence (Q07699 19-218 partner): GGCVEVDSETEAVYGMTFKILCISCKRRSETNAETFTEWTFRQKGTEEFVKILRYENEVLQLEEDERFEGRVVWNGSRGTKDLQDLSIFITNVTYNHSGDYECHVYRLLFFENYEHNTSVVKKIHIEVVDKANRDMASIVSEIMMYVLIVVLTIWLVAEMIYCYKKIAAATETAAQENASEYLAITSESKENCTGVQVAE
# Sequence (O60939 30-215 partner): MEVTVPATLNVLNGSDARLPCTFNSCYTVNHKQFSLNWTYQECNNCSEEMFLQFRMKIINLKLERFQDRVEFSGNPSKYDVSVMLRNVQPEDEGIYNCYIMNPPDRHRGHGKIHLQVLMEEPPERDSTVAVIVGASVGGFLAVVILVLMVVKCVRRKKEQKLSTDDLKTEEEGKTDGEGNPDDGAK
# experimentSummary: Use-dependent inhibition of the CNS Nav1.2 sodium channel
# Type: cell-based
# testConditions: use-dependent block, 25 Hz, pulse 20, read-out: Nav1.2 UDB 25 Hz 10 uM
parameterMeasured: inhibition at 10 µM (%)
Give bare numbers, in %.

{"columns": ["compound", "testTarget", "unitAbbreviation", "inhibition at 10 µM"],
 "data": [
  ["CC(C)c1nccn1-c1noc2ccc(-c3ccc(OC(F)(F)F)cc3)cc12 [Example 144]", "hNaV1.2 (SCN2A) (Homo sapiens)", "%", 75.8],
  ["OCc1cn(-c2noc3ccc(-c4ccc(OC(F)(F)F)cc4)cc23)cn1 [Example 146]", "hNaV1.2 (SCN2A) (Homo sapiens)", "%", 75.8],
  ["Cc1cc(-c2ccc(OC(F)(F)F)cc2)cc2c(OCc3ncco3)noc12 [Example 91]", "hNaV1.2 (SCN2A) (Homo sapiens)", "%", 46.9],
  ["Cc1cc(COc2noc3ccc(-c4ccc(OC(F)(F)F)cc4)cc23)on1 [Example 102]", "hNaV1.2 (SCN2A) (Homo sapiens)", "%", 20.6]
]}

Each of the following entries comes with a recorded value; kindly state inhibition at 10 µM for each.
1. CC(COc1noc2ccc(-c3ccc(OC(F)(F)F)cc3)cc12)n1cncn1 (stereo not drawn) [Example 77]
2. FC(F)(F)Oc1ccc(-c2ccc3onc(NCCn4cncn4)c3c2)cc1 [Example 137]

Response:
1. 31.8
2. 86
